TARGET_ENTITY: PDE4B1 (Homo sapiens, UniProt Q07343)
Construct: purchased BPS 60041
Sequence (Q07343 whole entry): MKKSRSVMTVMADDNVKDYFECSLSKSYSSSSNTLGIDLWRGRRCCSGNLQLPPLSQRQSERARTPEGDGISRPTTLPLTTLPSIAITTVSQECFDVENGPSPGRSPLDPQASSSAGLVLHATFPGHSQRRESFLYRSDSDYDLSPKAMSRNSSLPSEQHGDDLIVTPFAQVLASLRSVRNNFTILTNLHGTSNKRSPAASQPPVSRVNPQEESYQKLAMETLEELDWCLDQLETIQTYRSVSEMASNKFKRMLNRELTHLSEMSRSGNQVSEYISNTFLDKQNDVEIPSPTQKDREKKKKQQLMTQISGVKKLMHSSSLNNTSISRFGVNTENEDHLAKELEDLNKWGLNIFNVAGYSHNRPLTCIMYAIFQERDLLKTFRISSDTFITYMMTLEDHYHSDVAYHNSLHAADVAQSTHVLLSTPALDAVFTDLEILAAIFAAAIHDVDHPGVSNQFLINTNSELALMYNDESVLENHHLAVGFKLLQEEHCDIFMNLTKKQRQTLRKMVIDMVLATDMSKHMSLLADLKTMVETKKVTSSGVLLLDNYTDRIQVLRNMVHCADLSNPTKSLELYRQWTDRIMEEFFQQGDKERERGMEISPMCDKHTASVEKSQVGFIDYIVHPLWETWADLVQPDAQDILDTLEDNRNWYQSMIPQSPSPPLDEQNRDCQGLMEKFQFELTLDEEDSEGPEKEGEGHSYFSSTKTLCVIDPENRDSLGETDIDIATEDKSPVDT
ASSAY_TEXT: PDE4 activity inhibition assay, PDE4B1
Assay type: biochemical
APPLIED_CONDITIONS: FAM-cAMP substrate, 30 minutes at room temperature
QUANTITY_NAME: IC50 (nM)

Example entries and their recorded answers appear below.
MOLECULE	VALUE_REPORTED
[2H]C([2H])([2H])Oc1ccc([C@@H](CS(C)(=O)=O)N2C(=O)c3cccc(NC(=O)C4CC4)c3C2=O)nc1OCC	1.7
CCOc1cc([C@@H](CS(C)(=O)=O)N2C(=O)c3cncc(NC(C)=O)c3C2=O)ccc1OC	513
CCOc1cc(C(CS(C)(=O)=O)N2C(=O)c3cccc(NC(C)=O)c3C2=O)ncc1OC (centres unmarked)	484

[I] [2H]C([2H])([2H])Oc1ccc([C@@H](CS(C)(=O)=O)N2C(=O)c3cc(F)cc(NC(C)=O)c3C2=O)cc1OCC
[II] CCOc1nc(C(CS(C)(=O)=O)N2C(=O)c3c(F)ccc(NC(=O)CC(C)C)c3C2=O)ccc1OC (centres unmarked)
[III] CCOc1cc([C@@H](CS(C)(=O)=O)N2C(=O)c3cc(F)cc(NC(C)=O)c3C2=O)ccc1OC
[IV] CCOc1cc(C(CS(C)(=O)=O)N2C(=O)c3nccc(NC(C)=O)c3C2=O)ccc1OC (centres unmarked)
List the 4 entries from lowest IC50 to highest IC50 value. Response format: the labels, sorted as the prompt asks.
II, III, I, IV

====

TARGET_ENTITY: PDE4A1A (Homo sapiens)
Construct: purchased BPS 60040
Sequence (P27815 1-647 isoform P27815-4): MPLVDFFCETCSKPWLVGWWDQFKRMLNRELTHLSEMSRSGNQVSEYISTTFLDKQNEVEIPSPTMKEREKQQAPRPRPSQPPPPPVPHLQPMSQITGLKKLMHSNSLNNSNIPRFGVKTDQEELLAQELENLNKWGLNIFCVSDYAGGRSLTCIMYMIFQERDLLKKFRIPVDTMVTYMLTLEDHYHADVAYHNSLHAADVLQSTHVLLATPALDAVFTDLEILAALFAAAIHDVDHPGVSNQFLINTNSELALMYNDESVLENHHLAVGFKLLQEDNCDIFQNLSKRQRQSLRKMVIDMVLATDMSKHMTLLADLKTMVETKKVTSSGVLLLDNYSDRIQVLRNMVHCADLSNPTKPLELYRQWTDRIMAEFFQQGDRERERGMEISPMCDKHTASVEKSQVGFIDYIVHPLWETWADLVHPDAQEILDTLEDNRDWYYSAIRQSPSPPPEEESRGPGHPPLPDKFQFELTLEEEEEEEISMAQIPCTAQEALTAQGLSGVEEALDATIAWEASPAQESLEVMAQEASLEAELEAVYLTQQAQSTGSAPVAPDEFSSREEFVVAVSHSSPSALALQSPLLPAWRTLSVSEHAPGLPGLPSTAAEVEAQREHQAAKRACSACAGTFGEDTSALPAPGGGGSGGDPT
ASSAY_TEXT: PDE4 activity inhibition assay, PDE4A1A
Format: biochemical
APPLIED_CONDITIONS: FAM-cAMP substrate, 30 minutes at room temperature
Description: The IC50 value of the inhibitory effect of the compound on PDE4A1A, PDE4B1 and PDE4D3 was tested. Positive compound: Trequinsin (Sigma, Cat. No. T2057). Equipment: Wallac Victor Multi-label counter (Perkin Elmer). I. Preparing 1× reaction liquid and termination liquid; II. […] The inhibition rate was calculated by Excel; IC50 was calculated by GraphPad Prism.
QUANTITY_NAME: IC50 (nM)

MOLECULE	IC50 (nM)
[2H]C([2H])([2H])Oc1ccc([C@@H](CS(C)(=O)=O)N2C(=O)c3cc(F)cc(NC(C)=O)c3C2=O)cc1OC([2H])([2H])[2H] [Compound 205]	123
CCOc1nc([C@@H](CS(C)(=O)=O)N2C(=O)c3cccc(NC(C)=O)c3C2=O)ccc1OC [Compound 702]	2.2
CCOc1nc(C(CS(C)(=O)=O)N2C(=O)c3c(Cl)ccc(NC(C)=O)c3C2=O)ccc1OC (stereo not shown) [Compound 728]	0.6

[A] CCOc1cc([C@@H](CS(C)(=O)=O)N2C(=O)c3c(F)ccc(NC(C)=O)c3C2=O)ccc1OC [Compound 102]
[B] [2H]C([2H])([2H])Oc1ccc([C@@H](CS(C)(=O)=O)N2C(=O)c3cccc(NC(=O)C4CC4)c3C2=O)nc1OCC [Compound 773]
Smaller IC50 value? Options are A and B Lab note: record the label of whichever item you select.
B

[A] CCOc1nc(C(CS(C)(=O)=O)N2C(=O)c3c(F)ccc(NC(=O)CN(C)C)c3C2=O)ccc1OC (stereo not shown) [Compound 751]
[B] CCOc1cc(C(CS(C)(=O)=O)N2C(=O)c3c(F)ccc(NC(C)=O)c3C2=O)ccc1OC(F)F (stereo not shown) [Compound 121]
Hey, between A and B which has a smaller measured IC50? Output the label that corresponds to your choice.
B
